tested on: VDR homodimer (NR concentration 270 nM); assay: PBM binding z-score (relative to random genomic background probes); higher = stronger binding; sequences stand for … in GC…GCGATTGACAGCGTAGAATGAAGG
Metric Name: PBM binding z-score

Recorded results for 3 sequences are shown here.
INSERT INTO assay_data (polymer_sequence, metric_name, reported_value) VALUES
  ('AATCCAGGGTCATCGTAGGCCAGAGTACGCACAG', 'PBM binding z-score', 4.06),
  ('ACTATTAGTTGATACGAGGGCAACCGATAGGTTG', 'PBM binding z-score', 0.979),
  ('CGTCAAAGTTCAAGATAACGTAACAGAAAGCAGC', 'PBM binding z-score', 3.57);

In plain terms, "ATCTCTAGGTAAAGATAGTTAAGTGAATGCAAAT" has a documented PBM binding z-score of -0.177

// PBM binding z-score lookup, sequence = "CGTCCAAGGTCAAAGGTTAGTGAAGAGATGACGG" , result: 3.02

Sure, the documented PBM binding z-score for "ATCTCTAGGTAAGTCTCAGTTCAGTGAAGAACGC" is 1.72

###

Measured PBM binding z-score accompanies every entry in the list below.
system: LXRa:RXRa (NR concentration 270 nM, RXRa partner concentration 90 nM); experiment: PBM binding z-score (relative to random genomic background probes); higher = stronger binding; sequences stand for … in GC…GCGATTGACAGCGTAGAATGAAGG
Answer with the value's number alone.

Please review the entries below; each comes with its answer.
INSERT INTO measurements (polymer_sequence, metric_name, reported_value) VALUES
  ('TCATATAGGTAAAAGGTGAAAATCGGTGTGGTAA', 'PBM binding z-score', 2.08),
  ('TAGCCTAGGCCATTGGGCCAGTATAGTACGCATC', 'PBM binding z-score', -0.881),
  ('AGTCAAAGTTCAGGACGAGGTAGCGTAAAGCACG', 'PBM binding z-score', 3.36),
  ('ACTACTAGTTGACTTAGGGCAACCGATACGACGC', 'PBM binding z-score', 0.17),
  ('CGTTCAAGGTCAAGGTCAGTGAAAGAGACTCGAA', 'PBM binding z-score', 5.69);

Reported PBM binding z-score for "GTGACTGGGGCATCAGCAGGTTACCATAACTTAA" was 0.236

Data point: "AGCTCTAGGTAACAAGTTCAGTGAAAGAGAGGAC" ; PBM binding z-score = 0.614

###

tested on: RARa homodimer (NR concentration 270 nM); assay: PBM binding z-score (relative to random genomic background probes); higher = stronger binding; sequences stand for … in GC…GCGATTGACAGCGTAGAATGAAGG
Metric Name: PBM binding z-score

Here is how some sequences turned out for PBM binding z-score.
INSERT INTO results (polymer_sequence, metric_name, reported_value) VALUES
  ('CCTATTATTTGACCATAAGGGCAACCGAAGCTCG', 'PBM binding z-score', 4.4),
  ('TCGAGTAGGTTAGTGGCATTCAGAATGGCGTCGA', 'PBM binding z-score', -0.37),
  ('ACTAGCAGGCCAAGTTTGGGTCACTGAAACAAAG', 'PBM binding z-score', -0.321),
  ('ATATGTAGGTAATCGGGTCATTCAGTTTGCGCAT', 'PBM binding z-score', 1.35),
  ('CAGACTGGGGCAAGGTTACCATAACGCACAGCCA', 'PBM binding z-score', 0.141);

Here is another sequence to look at.
The recorded PBM binding z-score for "CCTCGGAGGACAACAGCAGGTCAGAGCTGCCAGA" is 0.0209

###

system: LXRa homodimer (NR concentration 270 nM); assay: PBM binding z-score (relative to random genomic background probes); higher = stronger binding; sequences stand for … in GC…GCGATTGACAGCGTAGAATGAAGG
Label fulfilled when PBM binding z-score is at or above 0.4; otherwise label not fulfilled.

Worked examples, 2 sequences total:
INSERT INTO measurements (polymer_sequence, assigned_category) VALUES
  ('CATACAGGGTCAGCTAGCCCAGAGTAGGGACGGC', 'not fulfilled'),
  ('TCGAGTTGGTTACCAATGGGGCATTCAGCTTTCT', 'not fulfilled');

Ask: Determine whether measured PBM binding z-score meets or exceeds 0.4 for "GCTGCTAGGTCAGGTTGGTCACCTAACGGGTACG"
Result: not fulfilled

Ask: # check: PBM binding z-score of "CCTGCTAGGTCAATGGTGAGCTAAAGCAGCTCGC" is greater than or equal to 0.4
Result: not fulfilled

###

test system: THRa homodimer (NR concentration 90 nM); assay: PBM binding z-score (relative to random genomic background probes); higher = stronger binding; sequences stand for … in GC…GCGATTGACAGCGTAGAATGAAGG
Metric Name: PBM binding z-score

Solved cases below.
INSERT INTO assay_data (polymer_sequence, reported_value) VALUES
  ('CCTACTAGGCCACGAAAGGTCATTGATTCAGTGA', 1.29),
  ('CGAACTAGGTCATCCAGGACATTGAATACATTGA', 2.27),
  ('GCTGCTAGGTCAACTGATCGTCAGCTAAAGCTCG', 0.546),
  ('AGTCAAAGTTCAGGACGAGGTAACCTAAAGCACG', 1.92);

For "AGTCAAAGTTCACTAGGTAATGTAAGATTCAGCT" on THRa homodimer (NR concentration 90 nM), measured PBM binding z-score was -0.139

Observed PBM binding z-score on THRa homodimer (NR concentration 90 nM), entry "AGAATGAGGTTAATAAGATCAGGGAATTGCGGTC" , equals 0.762

###

tested on: THRa:RXRa (NR concentration 90 nM, RXRa partner concentration 90 nM); experiment: PBM binding z-score (relative to random genomic background probes); higher = stronger binding; sequences stand for … in GC…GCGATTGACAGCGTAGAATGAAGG
Please enter yes where PBM binding z-score is greater than or equal to 1, and no where it is lower.

Solved cases below.
INSERT INTO measurements (polymer_sequence, assigned_category) VALUES
  ('AGAATGAGGTTATGAAGATCAGGGAATTGCGGTC', 'yes'),
  ('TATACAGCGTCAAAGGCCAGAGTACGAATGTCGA', 'no');

Ask: Could you tell me if the measured PBM binding z-score of "GGAACGAGGGCAAAGTTGATAGAATCTGTCGACG" reaches 1 or more?
Result: yes

Ask: # bool: PBM binding z-score of "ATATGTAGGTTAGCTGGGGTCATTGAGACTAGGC" >= 1
Result: yes

Ask: Could you please find out whether "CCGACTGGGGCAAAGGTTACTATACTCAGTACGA" has PBM binding z-score that meets 1 or exceeds it?
Result: yes

Ask: // inclusive: PBM binding z-score at least 1? input: "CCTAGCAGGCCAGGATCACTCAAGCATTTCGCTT"
Result: no

###

tested on: RARg homodimer (NR concentration 270 nM); assay: PBM binding z-score (relative to random genomic background probes); higher = stronger binding; sequences stand for … in GC…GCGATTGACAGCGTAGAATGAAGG
Label rule, in plain words: PBM binding z-score of 4 and up is Satisfied, under 4 is Not satisfied.

These solved cases illustrate the format of a correct answer.
INSERT INTO assay_data (polymer_sequence, assigned_category) VALUES
  ('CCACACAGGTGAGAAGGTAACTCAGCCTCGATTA', 'Not satisfied'),
  ('CGAACTAGGTCAGAACAAGACAGTGAAGGATGAT', 'Not satisfied'),
  ('CTCGAAAGGTCGGTTGAGGTGAGTGTACGGATAA', 'Not satisfied'),
  ('TGTCAAAGTTCAACGGTAACGTAAGTATCCACAC', 'Satisfied'),
  ('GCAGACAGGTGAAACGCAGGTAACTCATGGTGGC', 'Not satisfied');

# input for lookup
Ask: Form field: PBM binding z-score at least 4? Entry: "CCTTCCGGGTCACTGACAGGTTATAGCATTTGGA"
Result: Satisfied

###

tested on: PPARg:RXRa (NR concentration 180 nM, RXRa partner concentration 90 nM); experiment: PBM binding z-score (relative to random genomic background probes); higher = stronger binding; sequences stand for … in GC…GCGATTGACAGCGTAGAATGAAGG
If the reported PBM binding z-score equals or exceeds 1, assign Satisfied. If not, assign Not satisfied.

Worked cases, answers included:
INSERT INTO results (polymer_sequence, target_or_test_system, assigned_category) VALUES
  ('CAAACTAGGTCACAGAGGTCACAGTCCGTGCGTA', 'PPARg:RXRa (NR concentration 180 nM, RXRa partner concentration 90 nM)', 'Satisfied'),
  ('CGAACGAGGGCATGAGTTAATAGCAAATGCCGAT', 'PPARg:RXRa (NR concentration 180 nM, RXRa partner concentration 90 nM)', 'Satisfied'),
  ('GCTTGTAGATCAGGGTTAAGAAAGACTAAGCTAA', 'PPARg:RXRa (NR concentration 180 nM, RXRa partner concentration 90 nM)', 'Not satisfied');

Ask: Kindly determine if PBM binding z-score recorded for "TATACAGGGTCAAAGGCCAGTGTACGAATGTCGA" is above or exactly 1.
Result: Satisfied

Ask: Form field: PBM binding z-score at least 1? Entry: "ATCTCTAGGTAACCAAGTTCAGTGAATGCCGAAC"
Result: Not satisfied

Ask: Please check the record "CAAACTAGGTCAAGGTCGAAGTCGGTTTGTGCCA" and state if its PBM binding z-score is at or above 1.
Result: Satisfied

Ask: Check the entry "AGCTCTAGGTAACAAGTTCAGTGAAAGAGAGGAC" : does PBM binding z-score equal or exceed 1?
Result: Satisfied

Ask: Identify whether the reported PBM binding z-score of the following sequence is 1 or greater: "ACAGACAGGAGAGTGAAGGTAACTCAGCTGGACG"
Result: Not satisfied

Values were extracted from the supplement of paper PMC6555819.
